study target: human β3 adrenergic receptor (Homo sapiens, UniProt P13945)
Construct: expressed in transfected cells; host or cells: Chinese hamster ovary (CHO) cells, stably transfected
Sequence (P13945 whole entry): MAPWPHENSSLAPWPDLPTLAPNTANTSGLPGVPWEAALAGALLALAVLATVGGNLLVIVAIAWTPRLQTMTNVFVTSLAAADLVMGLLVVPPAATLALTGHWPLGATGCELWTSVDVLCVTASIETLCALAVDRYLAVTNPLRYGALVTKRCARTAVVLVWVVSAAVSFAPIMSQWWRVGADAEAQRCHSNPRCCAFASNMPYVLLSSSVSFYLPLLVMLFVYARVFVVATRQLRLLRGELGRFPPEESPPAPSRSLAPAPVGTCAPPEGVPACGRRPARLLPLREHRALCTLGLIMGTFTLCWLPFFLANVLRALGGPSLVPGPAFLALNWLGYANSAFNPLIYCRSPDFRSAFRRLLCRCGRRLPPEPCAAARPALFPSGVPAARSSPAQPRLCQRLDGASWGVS
test protocol: Beta-3 agonist in vitro functional assay: cAMP production (LANCE TR-FRET) in CHO cells stably transfected with the cloned β3 receptor
Assay type: cell-based
run parameters: Table 12; human β3 functional activity given as ranges; read-out: Human β3 agonist functional activity
pEC50: −log10 of the molar value.

# molecule, study target, pEC50
rows = [
    ("CCC1CC2(CCN(C(=O)c3ccc(CC4CCC(C(O)c5ccccc5)N4)cc3)CC2)C(=O)O1 (single isomer, unassigned) [Example 563]", "human β3 adrenergic receptor (Homo sapiens, UniProt P13945)", "8.00 to 9.00"),
    ("CC(C)(C)C1CC2(CCN(C(=O)c3ccc(CC4CCC(C(O)c5ccccc5)N4)cc3)CC2)C(=O)O1 (single isomer, unassigned) [Example 570]", "human β3 adrenergic receptor (Homo sapiens, UniProt P13945)", "8.00 to 9.00"),
    ("O=C(c1ccc(CC2CCC(C(O)c3ccccc3)N2)cc1)N1CCN(C2CCc3cccnc32)CC1 (single isomer, unassigned) [Example 598]", "human β3 adrenergic receptor (Homo sapiens, UniProt P13945)", "8.00 to 9.00"),
    ("CC(c1cocn1)N1CCN(C(=O)c2ccc(CC3CCC(C(O)c4ccccc4)N3)cc2)CC1 (single isomer, unassigned) [Example 586]", "human β3 adrenergic receptor (Homo sapiens, UniProt P13945)", "7.00 to 8.00"),
    ("O=C(c1ccc(CC2CCC(C(O)c3ccccc3)N2)cc1)N1CCC2(CC1)CC(C(F)(F)F)OC2=O (single isomer, unassigned) [Example 566]", "human β3 adrenergic receptor (Homo sapiens, UniProt P13945)", "7.00 to 8.00"),
    ("CC(c1cccnn1)N1CCN(C(=O)c2ccc(CC3CCC(C(O)c4ccccc4)N3)cc2)CC1 (single isomer, unassigned) [Example 591]", "human β3 adrenergic receptor (Homo sapiens, UniProt P13945)", "7.00 to 8.00"),
    ("CC(c1ccccc1F)N1CCN(C(=O)c2ccc(CC3CCC(C(O)c4ccccc4)N3)cc2)CC1 (single isomer, unassigned) [Example 573]", "human β3 adrenergic receptor (Homo sapiens, UniProt P13945)", "8.00 to 9.00"),
    ("CC1CC2(CCN(C(=O)c3ccc(CC4CCC(C(O)c5ccccc5)N4)cc3)CC2)C(=O)O1 (single isomer, unassigned) [Example 562]", "human β3 adrenergic receptor (Homo sapiens, UniProt P13945)", "8.00 to 9.00"),
    ("CC(c1ccccc1F)N1CCN(C(=O)c2ccc(CC3CCC(C(O)c4ccccc4)N3)cc2)CC1 (single isomer, unassigned) [Example 574]", "human β3 adrenergic receptor (Homo sapiens, UniProt P13945)", "7.00 to 8.00"),
    ("CC(c1ncccc1Cl)N1CCN(C(=O)c2ccc(CC3CCC(C(O)c4ccccc4)N3)cc2)CC1 (single isomer, unassigned) [Example 594]", "human β3 adrenergic receptor (Homo sapiens, UniProt P13945)", "8.00 to 9.00"),
    ("O=C1CC(c2ccccc2)C2(CCN(C(=O)c3ccc(CC4CCC(C(O)c5cccnc5)N4)cc3)CC2)O1 (single isomer, unassigned) [Example 560]", "human β3 adrenergic receptor (Homo sapiens, UniProt P13945)", "8.00 to 9.00"),
    ("CC(c1ncccc1Cl)N1CCN(C(=O)c2ccc(CC3CCC(C(O)c4ccccc4)N3)cc2)CC1 (single isomer, unassigned) [Example 593]", "human β3 adrenergic receptor (Homo sapiens, UniProt P13945)", "8.00 to 9.00"),
    ("CC(c1cccnn1)N1CCN(C(=O)c2ccc(CC3CCC(C(O)c4ccccc4)N3)cc2)CC1 (single isomer, unassigned) [Example 592]", "human β3 adrenergic receptor (Homo sapiens, UniProt P13945)", "6.00 to 7.00"),
    ("CC(c1ccn(C)n1)N1CCN(C(=O)c2ccc(CC3CCC(C(O)c4ccccc4)N3)cc2)CC1 (single isomer, unassigned) [Example 577]", "human β3 adrenergic receptor (Homo sapiens, UniProt P13945)", "8.00 to 9.00"),
    ("O=C(c1ccc(CC2CCC(C(O)c3ccccc3)N2)cc1)N1CCC2(CC1)CC(C(F)(F)F)OC2=O (single isomer, unassigned) [Example 565]", "human β3 adrenergic receptor (Homo sapiens, UniProt P13945)", "8.00 to 9.00"),
    ("O=C1OCCC1N1CCN(C(=O)c2ccc(CC3CCC(C(O)c4ccccc4)N3)cc2)CC1 (single isomer, unassigned) [Example 603]", "human β3 adrenergic receptor (Homo sapiens, UniProt P13945)", "8.00 to 9.00"),
    ("O=C(c1ccc(CC2CCC(C(O)c3ccccc3)N2)cc1)N1CCN(C2CCN(C3CC3)C2=O)CC1 (single isomer, unassigned) [Example 608]", "human β3 adrenergic receptor (Homo sapiens, UniProt P13945)", "7.00 to 8.00"),
    ("CC(C)C1CC2(CCN(C(=O)c3ccc(CC4CCC(C(O)c5ccccc5)N4)cc3)CC2)C(=O)O1 (single isomer, unassigned) [Example 568]", "human β3 adrenergic receptor (Homo sapiens, UniProt P13945)", "7.00 to 8.00"),
    ("O=C(c1ccc(CC2CCC(C(O)c3ccccc3)N2)cc1)N1CCC2(CC1)C(=O)NCC2c1ccc(F)cc1 (single isomer, unassigned) [Example 557]", "human β3 adrenergic receptor (Homo sapiens, UniProt P13945)", "8.00 to 9.00"),
    ("O=C(c1ccc(CC2CCC(C(O)c3ccccc3)N2)cc1)N1CCN(C(c2ccccn2)C2CC2)CC1 (single isomer, unassigned) [Example 589]", "human β3 adrenergic receptor (Homo sapiens, UniProt P13945)", "7.00 to 8.00"),
    ("CCC(c1ccccn1)N1CCN(C(=O)c2ccc(CC3CCC(C(O)c4ccccc4)N3)cc2)CC1 (single isomer, unassigned) [Example 587]", "human β3 adrenergic receptor (Homo sapiens, UniProt P13945)", "7.00 to 8.00"),
    ("CC(c1ncccn1)N1CCN(C(=O)c2ccc(CC3CCC(C(O)c4ccccc4)N3)cc2)CC1 (single isomer, unassigned) [Example 595]", "human β3 adrenergic receptor (Homo sapiens, UniProt P13945)", "7.00 to 8.00"),
    ("CC(c1cocn1)N1CCN(C(=O)c2ccc(CC3CCC(C(O)c4ccccc4)N3)cc2)CC1 (single isomer, unassigned) [Example 585]", "human β3 adrenergic receptor (Homo sapiens, UniProt P13945)", "7.00 to 8.00"),
    ("CC(c1ncc2ccccc2n1)N1CCN(C(=O)c2ccc(C[C@@H]3CC[C@H]([C@H](O)c4ccccc4)N3)cc2)CC1 (mixture of isomers)", "human β3 adrenergic receptor (Homo sapiens, UniProt P13945)", "8.00 to 9.00"),
]

* * *

Measured pEC50, listed per entry.
study target: human β3 adrenergic receptor (Homo sapiens, UniProt P13945)
Construct: expressed in transfected cells; host or cells: Chinese hamster ovary (CHO) cells, stably transfected
test protocol: Beta-3 agonist in vitro functional assay: cAMP production (LANCE TR-FRET) in CHO cells stably transfected with the cloned β3 receptor
Type: cell-based
run parameters: Table 4; cAMP, CHO cells; read-out: Human β3 agonist functional activity
pEC50: −log10 of the molar value.
endpoint: pEC50

# compound, endpoint, reported value
rows = [
    ("C[C@H]1CN(C(=O)c2ccc(C[C@@H]3CC[C@H]([C@H](O)c4ccccc4)N3)cc2)CC[C@@H]1n1cccn1", "pEC50", "6.00 to 7.00"),
    ("O=C(c1ccc(C[C@@H]2CC[C@H]([C@H](O)c3ccccc3)N2)cc1)N1Cc2cncnc2C1", "pEC50", "6.00 to 7.00"),
    ("O=C(c1ccc(C[C@@H]2CC[C@H]([C@H](O)c3ccccc3)N2)cc1)N1Cc2c[nH]nc2C1", "pEC50", "7.00 to 8.00"),
    ("O=C(c1ccc(C[C@@H]2CC[C@H]([C@H](O)c3ccccc3)N2)cc1)N1CC2CCNC2C1 (stereo partly drawn)", "pEC50", "6.00 to 7.00"),
    ("CO[C@@H]1CCN(C(=O)c2ccc(C[C@@H]3CC[C@H]([C@H](O)c4ccccc4)N3)cc2)C1", "pEC50", "6.00 to 7.00"),
    ("Cc1noc(C2CCN(C(=O)c3ccc(C[C@@H]4CC[C@H]([C@H](O)c5ccccc5)N4)cc3)C2)n1 (stereo partly drawn)", "pEC50", "6.00 to 7.00"),
    ("Cc1noc(C2CCCCN2C(=O)c2ccc(C[C@@H]3CC[C@H]([C@H](O)c4ccccc4)N3)cc2)n1 (stereo partly drawn)", "pEC50", "5.52 to 6.00"),
    ("COc1ccc2c(c1)C(=O)CC1(CCCN(C(=O)c3ccc(C[C@@H]4CC[C@H]([C@H](O)c5ccccc5)N4)cc3)C1)O2 (stereo partly drawn)", "pEC50", "7.00 to 8.00"),
    ("O=C(c1ccc(C[C@@H]2CC[C@H]([C@H](O)c3ccccc3)N2)cc1)N1CC(Oc2cncc(Cl)n2)C1", "pEC50", "6.00 to 7.00"),
    ("CCOC(=O)C1(F)CCCN(C(=O)c2ccc(C[C@@H]3CC[C@H]([C@H](O)c4ccccc4)N3)cc2)C1 (stereo partly drawn)", "pEC50", "6.00 to 7.00"),
    ("O=C(c1ccc(C[C@@H]2CC[C@H]([C@H](O)c3cccnc3)N2)cc1)N1CCC2Oc3ccccc3OC2C1 (stereo partly drawn)", "pEC50", "7.00 to 8.00"),
    ("Cn1ncc2c1CN(C(=O)c1ccc(C[C@@H]3CC[C@H]([C@H](O)c4ccccc4)N3)cc1)C2", "pEC50", "6.00 to 7.00"),
    ("O=C(c1ccc(C[C@@H]2CC[C@H]([C@H](O)c3ccccc3)N2)cc1)N1Cc2cocc2C1", "pEC50", "7.00 to 8.00"),
    ("O=C(c1ccc(C[C@@H]2CC[C@H]([C@H](O)c3ccccc3)N2)cc1)N1CC2CC(n3ccnn3)CC2C1 (stereo partly drawn)", "pEC50", "7.00 to 8.00"),
    ("O=C(c1ccc(C[C@@H]2CC[C@H]([C@H](O)c3ccccc3)N2)cc1)N1CCCCC1c1nccs1 (stereo partly drawn)", "pEC50", "6.00 to 7.00"),
]
